These measurements were taken from BigSolDB 2.1.

details: in n-propanol, 303.15 K
recorded.metric: solubility (mole fraction)
One number for each entry.

Exercise: Recorded solubility (mole fraction) for Nc1nc(Cl)c2[nH]cnc2n1 , please?
Key: 0.000234
